Test system: pancreatic exocrine function
Assay: 13C-dipeptide breath test in normal rats (Δ13C in exhaled CO2 after oral administration)
Type: in vivo, rat
Conditions: Table 1; overnight-fasted Wistar rats, oral 35 μmol/kg (5 ml/kg); peak in time course of Δ13C(‰) up to 20 min
QUANTITY: Peak time (min)
Hi! Could you send only the number? It should be in min, unit omitted.

Below, each entry is followed by its recorded Peak time result.
- COMPOUND: "CSCC[C@H](NC(=O)c1ccccc1)C(=O)N[C@@H](C)[13C](=O)[O-].[Na+] [Na salt of Bz-Met-(^13C-Ala), N-benzoyl-L-methionyl-^13C-L-alanine]"
  QUANTITY: "Peak time"
  UNIT LABEL: "min"
  RECORDED RESULT: 10
- COMPOUND: "C[C@H](NC(=O)[C@H](CC(N)=O)NC(=O)c1ccccc1)[13C](=O)[O-].[Na+] [Na salt of Bz-Asn-(^13C-Ala), reference compound]"
  QUANTITY: "Peak time"
  UNIT LABEL: "min"
  RECORDED RESULT: 15
- COMPOUND: "C[C@H](NC(=O)[C@H](CCCCN)NC(=O)c1ccccc1)[13C](=O)O [Bz-Lys-(^13C-Ala), reference compound]"
  QUANTITY: "Peak time"
  UNIT LABEL: "min"
  RECORDED RESULT: 15
- COMPOUND: "C[C@H](NC(=O)[C@H](CO)NC(=O)c1ccccc1)[13C](=O)[O-].[Na+] [Na salt of Bz-Ser-(^13C-Ala), N-benzoyl-L-seryl-^13C-L-alanine]"
  QUANTITY: "Peak time"
  UNIT LABEL: "min"
  RECORDED RESULT: 15
- COMPOUND: "C[C@H](NC(=O)[C@H](Cc1ccc(O)cc1)NC(=O)c1ccccc1)[13C](=O)[O-].[Na+] [Na salt of Bz-Tyr-(^13C-Ala), N-benzoyl-L-tyrosyl-^13C-L-alanine]"
  QUANTITY: "Peak time"
  UNIT LABEL: "min"
  RECORDED RESULT: 15

input: Item under review: C[C@H](NC(=O)[C@H](CC(=O)O)NC(=O)c1ccccc1)[13C](=O)[O-].[Na+] [Na salt of Bz-Asp-(^13C-Ala), reference compound] . Reported Peak time?
output: 20

====

System: pancreatic exocrine function
Experiment: 13C-dipeptide breath test in normal rats (Δ13C in exhaled CO2 after oral administration)
Assay type: in vivo, rat
Details: Table 2; rats, oral 35 μmol/kg (5 ml/kg)
QUANTITY: Peak time (min)
Form entry: value (min) — number only.

- COMPOUND: "CSCC[C@H](NC(C)=O)C(=O)N[C@@H](C)[13C](=O)[O-].[Na+] [Na salt of Ac-Met-(^13C-Ala), acetyl-L-methionyl-^13C-L-alanine]"
  Peak time / min: 15
- COMPOUND: "CSCC[C@H](NC(=O)OC(C)(C)C)C(=O)N[C@@H](C)[13C](=O)[O-].[Na+] [Na salt of Boc-Met-(^13C-Ala)]"
  Peak time / min: 15
- COMPOUND: "CSCC[C@H](NC(=O)OCc1ccccc1)C(=O)N[C@@H](C)[13C](=O)[O-].[Na+] [Na salt of Z-Met-(^13C-Ala)]"
  Peak time / min: 15
- COMPOUND: "C[C@H](NC(=O)[C@H](Cc1ccccc1)NC(=O)OC(C)(C)C)[13C](=O)[O-].[Na+] [Na salt of Boc-Phe-(^13C-Ala)]"
  Peak time / min: 20

Now let's try a different one.
input: Looking for the measured Peak time of C[C@H](NC(=O)c1ccccc1)C(=O)N[C@@H](C)[13C](=O)[O-].[Na+] [Na salt of Bz-Ala-(^13C-Ala), reference compound] , can you help?
output: 10
